Target: human MAL (human) (UniProt P58753)
Test: P8 phage display panning on plate-immobilised MAL, after round 4, NGS
Please note: Population exactly at 0.3% is false (0). Only values below 0.3% get true (1).

query: Quick check: does "KFIWDIINAISSQIRV" have Population under 0.3%?
result: true (1)

query: Quick check: does "NQWRNALTAAANLSGW" have Population under 0.3%?
result: true (1)

query: Quick check: does "HFFWIQLKSILGETSF" have Population under 0.3%?
result: false (0)

query: Quick check: does "AFFWAQLKSVLGNPTM" have Population under 0.3%?
result: false (0)

query: Quick check: does "KLFWEKFKEFFLPSLSR" have Population under 0.3%?
result: false (0)

query: Quick check: does "WFYERLVSLILRDTKV" have Population under 0.3%?
result: false (0)

query: Quick check: does "DFLNWFIALKSTVIEN" have Population under 0.3%?
result: true (1)

query: Quick check: does "RNNFIGHLYQALYRIG" have Population under 0.3%?
result: false (0)

query: Quick check: does "AFLYTFLINLTHPTNF" have Population under 0.3%?
result: false (0)

query: Quick check: does "YLKWGYPWFWDRLRFA" have Population under 0.3%?
result: true (1)

query: Quick check: does "SEFIQKIILWMNPKIV" have Population under 0.3%?
result: false (0)

query: Quick check: does "WFMMKFRTVLDHVNDV" have Population under 0.3%?
result: false (0)

query: Quick check: does "WFLFTVRSAIYAMSPA" have Population under 0.3%?
result: false (0)

query: Quick check: does "YLISYIFNELARAGFS" have Population under 0.3%?
result: true (1)

query: Quick check: does "QLIQQWIELHLHQLHL" have Population under 0.3%?
result: false (0)
